src = paper PMC9021956

inhibition at 5 µM: recorded values
molecular target: HLA-A0207 (Homo sapiens, UniProt P04439, D140Y/D185E/D98H/E176V/E277Q/G131W/G231S/I119V/I121R/I166T/I218V/L300P/L318F/N151K/N90K/P208A/P217A/Q86G/Q94H/R138H/R169H/T345S/Y123C); construct: expressed in transfected cells; host or cells: HMy2.CIR; experiment: cell-based; assay type: binding; settings: HLA-A0207 HMy2.CIR cells; competitor peptide 5μM; 24 hours; flow cytometry; read-out: 5μM Inhibition (%)
Residues, ends and D or L forms follow the SMILES beside them.
property_name: inhibition at 5 µM (%)

compound: CC(C)C[C@H](NC(=O)[C@H](CO)NC(=O)[C@H](CC(C)C)NC(=O)[C@@H](N)Cc1c[nH]c2ccccc12)C(=O)N[C@@H](CC(C)C)C(=O)N[C@H](C(=O)N1CCC[C@H]1C(=O)N[C@@H](Cc1ccccc1)C(=O)N[C@H](C(=O)O)C(C)C)C(C)C [Epitope P7]
property_name: inhibition at 5 µM
unit_info: %
reading: 38
//
compound: CSCC[C@H](NC(=O)[C@@H](N)CCSC)C(=O)N[C@@H](Cc1c[nH]c2ccccc12)C(=O)N[C@@H](Cc1ccccc1)C(=O)N[C@@H](Cc1c[nH]c2ccccc12)C(=O)NCC(=O)N1CCC[C@H]1C(=O)N[C@@H](CO)C(=O)N[C@@H](CC(C)C)C(=O)O [Epitope P71] (H-MMWFWGPSL-OH; N-terminus and C-terminus assumed)
property_name: inhibition at 5 µM
unit_info: %
reading: 52

* * *

molecular target: HLA-A1101 (Homo sapiens, UniProt P04439, A114D/D185E/E176A/F33Y/L180Q/S129P/T187R); construct: expressed in transfected cells; host or cells: HMy2.CIR; assay: cell-based; type: binding; details: HLA-A1101 HMy2.CIR cells; competitor peptide 15μM; 24 hours; flow cytometry; read-out: 15μM Inhibition (%)
Residues, ends and D or L forms follow the SMILES beside them.

compound: CC[C@H](C)[C@H](NC(=O)[C@H](CC(C)C)NC(=O)[C@@H](N)CCCCN)C(=O)NCC(=O)N[C@H](C(=O)N[C@@H](Cc1c[nH]cn1)C(=O)N[C@@H](CC(N)=O)C(=O)N[C@@H](CO)C(=O)N[C@H](C(=O)O)C(C)C)[C@@H](C)O [Epitope P33] (H-KLIGTHNSV-OH; N-terminus and C-terminus assumed)
inhibition at 15 µM (%): 14.8
//
compound: CC(C)C[C@H](NC(=O)[C@H](CC(=O)O)NC(=O)[C@@H](NC(=O)[C@@H](NC(=O)[C@@H](N)CO)[C@@H](C)O)[C@@H](C)O)C(=O)N[C@@H](CCC(=O)O)C(=O)N[C@@H](C)C(=O)N[C@@H](Cc1ccc(O)cc1)C(=O)N[C@@H](Cc1ccccc1)C(=O)N[C@@H](CCCCN)C(=O)O [Epitope P18]
inhibition at 15 µM (%): 41.3
//
compound: CSCC[C@H](NC(=O)[C@@H](N)CCSC)C(=O)N[C@@H](Cc1c[nH]c2ccccc12)C(=O)N[C@@H](Cc1ccc(O)cc1)C(=O)N[C@@H](Cc1c[nH]c2ccccc12)C(=O)NCC(=O)N1CCC[C@H]1C(=O)N[C@@H](CO)C(=O)N[C@@H](CC(C)C)C(=O)N[C@@H](Cc1ccc(O)cc1)C(=O)O [Epitope P108]
inhibition at 15 µM (%): 32
